Assay: AUC (0 to infinity) in CD-1 mouse at 10 mg/kg, po
Format: ADME, organism-based
Parameters: dose 10 mg/kg, time infinity, route oral
Conditions: CD-1, mouse, in vivo
Endpoint label: AUC(0-inf) (ng·h/mL)

I = Cc1noc(C)c1-c1ccc2nc(-c3cnn(CCO)c3)nc(N3CCOCC3c3ccccc3)c2c1 (configuration not stated)
II = Cc1noc(C)c1-c1ccc2nc(C(=O)NC3CCN(C)CC3)nc(NCc3cccc(Cl)c3)c2c1
QUERY: For this pair, I and II , which shows a numerically higher AUC(0-inf)? Provide the label of your selected option as the answer.
RESULT: I
(I: 4490 ng·h/mL, II: 54 ng·h/mL)

---

Test system: MV4-11
Experiment: Cytotoxicity against human MV411 cells after 72 hrs by CellTiter-Glo assay
Assay type: functional, cell-based
Settings: MV4-11, 72 h
# reported IC50; entries follow
Write it as a number; the unit µM goes unstated.

QUERY: Name the recorded IC50 of the compound listed here: Cc1n[nH]c(C)c1-c1ccc2nc(N3CCN(CCN(C)C)CC3)nc(NCc3cccc(Cl)c3)c2c1
RESULT: 2.85

---

Assay: Half life in CD-1 mouse at 10 mg/kg, po
Assay type: ADME, organism-based
Settings: in vivo
Endpoint label: half-life (h)

a = Cc1noc(C)c1-c1ccc2nc(C(=O)NC3CCN(C)CC3)nc(NCc3cccc(Cl)c3)c2c1
b = Cc1noc(C)c1-c1ccc2nc(-c3cnn(CCO)c3)nc(N3CCOCC3c3ccccc3)c2c1 (configuration not stated)
QUERY: // returns a or b , whichever has the lower half-life Provide the label of your selected option as the answer.
RESULT: b

---

Biological target: Bromodomain testis-specific protein (Homo sapiens, UniProt Q58F21)
Assay: Displacement of biotinylated acetylated peptide from recombinant human partial length BRDT isoform b bromodomain 1 (N21 to E137 residues) expressed in Escherichia coli BL21 measured after 1 hr by Bromoscan method
Endpoint label: Kd (nM)
Write it as a number; the unit nM goes unstated.

QUERY: With Bromodomain testis-specific protein (Homo sapiens, UniProt Q58F21) as the test system, provide measured Kd for this molecule: CN(C)CCN1CCN(c2nc(NCc3cccc(Cl)c3)c3cc(-c4ccc(=O)n(C)c4)ccc3n2)CC1
RESULT: 20

---

Molecular target: Bromodomain-containing protein 4 (Homo sapiens, UniProt O60885)
Experiment: Displacement of biotinylated acetylated peptide from recombinant human partial length BRD4 long isoform bromodomain 1/2 (N44 to E460 residues) expressed in Escherichia coli BL21 measured after 1 hr by Bromoscan method
pKd: −log10 of the molar value.
Endpoint label: pKd

Cc1noc(C)c1-c1ccc2[nH]c(=O)cc(NCc3cccc(Cl)c3)c2c1 7.26
Cc1noc(C)c1-c1ccc2nc(N3CCN(CCN(C)C)CC3)nc(NCc3cccc(F)c3)c2c1 6.77
Cc1noc(C)c1-c1ccc2nc(-c3cnn(CCN(C)C)c3)nc(NCc3cccc(Cl)c3)c2c1 7.25

P = Cc1noc(C)c1-c1ccc2nc(N3CCN(CCO)CC3)nc(NCc3cccc(Cl)c3)c2c1
Q = Cc1noc(C)c1-c1ccc2nc(N3CCN(CCC(C)C)CC3)nc(NCc3cccc(Cl)c3)c2c1
QUERY: For this pair, P and Q , which shows a numerically higher pKd? Provide the label of your selected option as the answer.
RESULT: P
(P: 7.25, Q: 6.01)

---

Target: Bromodomain-containing protein 4 (Homo sapiens)
Experiment: Displacement of biotinylated acetylated peptide from recombinant human partial length BRD4 long isoform bromodomain 1/2 (N44 to E460 residues) expressed in Escherichia coli BL21 measured after 1 hr by Bromoscan method
Endpoint label: Kd (nM)

Worked examples follow.
Compound	Result unit	Kd
Cc1noc(C)c1-c1ccc2nc(C(=O)NCc3cccnc3)nc(NCc3cccc(Cl)c3)c2c1	nM	56
Cc1noc(C)c1-c1ccc2nc(N3CCN(CCCN(C)C)CC3)nc(NCc3cccc(Cl)c3)c2c1	nM	97
Cc1noc(C)c1-c1ccc2nc(N3CCN(CCN(C)C)CC3)nc(NCc3cc(Cl)ccn3)c2c1	nM	110
Cc1noc(C)c1-c1ccc2nc(N3CCN(CCN(C)C)CC3)nc(NCc3cccc(Cl)c3)c2c1	nM	56

I = Cc1nocc1-c1ccc2nc(N3CCN(CCN(C)C)CC3)nc(NCc3cccc(Cl)c3)c2c1
II = Cc1oncc1-c1ccc2nc(N3CCN(CCN(C)C)CC3)nc(NCc3cccc(Cl)c3)c2c1
QUERY: // returns I or II , whichever has the lower Kd Provide the label of your selected option as the answer.
RESULT: I

---

Molecular target: Bromodomain testis-specific protein (Homo sapiens)
Test: Displacement of biotinylated acetylated peptide from recombinant human partial length BRDT isoform b bromodomain 1/2 (N21 to E382 residues) expressed in Escherichia coli BL21 measured after 1 hr by Bromoscan method
Endpoint label: Kd (nM)
Write it as a number; the unit nM goes unstated.

QUERY: Name the recorded Kd of the molecule listed here: CN(C)CCN1CCN(c2nc(NCc3cccc(Cl)c3)c3cc(-c4ccc(=O)n(C)c4)ccc3n2)CC1
RESULT: 67

---

Molecular target: Bromodomain-containing protein 4 (Homo sapiens, UniProt O60885)
Assay: Displacement of biotinylated acetylated peptide from recombinant human partial length BRD4 long isoform bromodomain 1/2 (N44 to E460 residues) expressed in Escherichia coli BL21 measured after 1 hr by Bromoscan method
Endpoint label: Kd (µM)

P = Cc1noc(C)c1-c1ccc2nc(C(=O)NC3CCN(C)CC3)nc(NCc3cccc(Cl)c3)c2c1
Q = Cc1noc(C)c1-c1ccc2nc(C(=O)Nc3cnn(C)c3)nc(NCc3cccc(Cl)c3)c2c1
QUERY: For this pair, P and Q , which shows a numerically higher Kd? Provide the label of your selected option as the answer.
RESULT: Q
(Q: 0.29 µM, P: 0.08 µM)

I = Cc1noc(C)c1-c1ccc2nc(N3CCN(CCN(C)C)CC3)nc(NCc3ccc(Cl)cc3)c2c1
II = Cc1noc(C)c1-c1ccc2nc(C(=O)NC3CCOCC3)nc(NCc3cccc(Cl)c3)c2c1
III = Cc1noc(C)c1-c1ccc2nc(N3CCCN(CCN(C)C)CC3)nc(NCc3cccc(Cl)c3)c2c1
QUERY: Write the entries in order, lowest recorded Kd first. Provide the labels, sequenced as the question asks.
RESULT: II, III, I

I = Cc1noc(C)c1-c1ccc2nc(N3CCN(CCN(C)C)CC3)nc(N3CCC3c3ccccc3)c2c1 (stereo unspecified)
II = Cc1noc(C)c1-c1ccc2nc(N3CCN(CC(=O)N(C)C)CC3)nc(NCc3cccc(Cl)c3)c2c1
QUERY: For this pair, I and II , which shows a numerically higher Kd? Provide the label of your selected option as the answer.
RESULT: I

A = Cc1noc(C)c1-c1ccc2nc(C(=O)N3CCN(CCN(C)C)CC3)nc(NCc3cccc(Cl)c3)c2c1
B = Cc1noc(C)c1-c1ccc2nc(-c3cnn(CCC#N)c3)nc(NCc3cccc(Cl)c3)c2c1
C = Cc1noc(C)c1-c1ccc2nc(N3CCN(CCN(C)C)CC3)nc(Nc3ccc(Cl)cc3)c2c1
QUERY: Please give the order of these compounds when sorted by Kd, largest value leading. Provide the labels, sequenced as the question asks.
RESULT: C, A, B

---

Molecular target: Bromodomain-containing protein 4 (Homo sapiens, UniProt O60885)
Test: Displacement of biotinylated acetylated peptide from recombinant human partial length BRD4 long isoform bromodomain 1/2 (N44 to E460 residues) expressed in Escherichia coli BL21 measured after 1 hr by Bromoscan method
Endpoint label: Kd (nM)

P = Cc1noc(C)c1-c1ccc2nc(N3CCN(CCN(C)C)CC3)nc(N(C)Cc3cccc(Cl)c3)c2c1
Q = Cc1noc(C)c1-c1ccc2nc(N3CCN(CCN(C)C)CC3)nc(NCc3cccs3)c2c1
R = Cc1noc(C)c1-c1ccc2nc(N3CCN(CCN(C)C)CC3)nc(NC3(c4cccc(Cl)c4)CC3)c2c1
QUERY: # desc sort on Kd across 3 compounds Provide the labels, sequenced as the question asks.
RESULT: P, Q, R

---

# reported pIC50; entries follow
Tested on: MV4-11
Assay: Cytotoxicity against human MV411 cells after 72 hrs by CellTiter-Glo assay
Format: functional, cell-based
Conditions: MV4-11, 72 h
Remember, pIC50 is on a log scale: it is -log10 of the molar concentration.

Worked examples follow.
Compound	Endpoint label	Reported measurement
Cc1cc(-c2ccc3nc(N4CCN(CCN(C)C)CC4)nc(NCc4cccc(Cl)c4)c3c2)cnc1O	pIC50	5.95
Cc1noc(C)c1-c1ccc2nc(N3CCN(CCN(C)C)CC3)nc(Nc3ccc(Cl)cc3)c2c1	pIC50	5.82
Cc1noc(C)c1-c1ccc2nc(N3CCN(CCN(C)C)CC3)nc(NCc3ccc(Cl)cc3)c2c1	pIC50	5.46

QUERY: Name the recorded pIC50 of the compound listed here: Cc1noc(C)c1-c1ccc2nc(N3CCN(CCN(C)C)CC3)nc(N3CCCC3c3ccccc3)c2c1 (stereo not given)
RESULT: 5.60

QUERY: Name the recorded pIC50 of the compound listed here: CNC(=O)Cn1cc(-c2nc(NCc3cccc(Cl)c3)c3cc(-c4c(C)noc4C)ccc3n2)cn1
RESULT: 6.00

QUERY: Name the recorded pIC50 of the compound listed here: Cc1noc(C)c1-c1ccc2nc(C(=O)Nc3cnn(C)c3)nc(NCc3cccc(Cl)c3)c2c1
RESULT: 5.44

QUERY: Name the recorded pIC50 of the compound listed here: CN(C)CCN1CCN(c2nc(NCc3cccc(Cl)c3)c3cc(-c4ccc(=O)n(C)c4)ccc3n2)CC1
RESULT: 6.27

QUERY: Name the recorded pIC50 of the compound listed here: Cc1noc(C)c1-c1ccc2nc(N3CCN(C(=O)CO)CC3)nc(NCc3cccc(Cl)c3)c2c1
RESULT: 5.88

QUERY: Name the recorded pIC50 of the compound listed here: Cc1noc(C)c1-c1ccc2nc(N3CCN(CCN(C)C)CC3)nc(NCc3cccc(F)c3)c2c1
RESULT: 5.91

QUERY: Name the recorded pIC50 of the compound listed here: Cc1noc(C)c1-c1ccc2nc(N3CCN(CCN(C)C)CC3)nc(NCc3cncc(Cl)c3)c2c1
RESULT: 5.86

QUERY: Name the recorded pIC50 of the compound listed here: Cc1oncc1-c1ccc2nc(N3CCN(CCN(C)C)CC3)nc(NCc3cccc(Cl)c3)c2c1
RESULT: 5.10

QUERY: Name the recorded pIC50 of the compound listed here: Cc1noc(C)c1-c1ccc2c(NCc3cccc(Cl)c3)nc(N3CCN(CCN(C)C)CC3)nc2c1
RESULT: 5.73

QUERY: Name the recorded pIC50 of the compound listed here: Cc1noc(C)c1-c1ccc2nc(N3CCN(CCN(C)C)CC3)nc(NCc3ccccc3Cl)c2c1
RESULT: 5.90

QUERY: Name the recorded pIC50 of the compound listed here: Cc1noc(C)c1-c1ccc2nc(N3CCN(CCN(C)C)CC3)nc(NCc3cc(Cl)ccn3)c2c1
RESULT: 5.80

QUERY: Name the recorded pIC50 of the compound listed here: Cc1noc(C)c1-c1ccc2nc(N3CCN(CCN(C)C)CC3)nc(N[C@@H](CO)c3ccccc3)c2c1
RESULT: 5.68

QUERY: Name the recorded pIC50 of the compound listed here: Cc1noc(C)c1-c1ccc2nc(N(C)CCN(C)C)nc(NCc3cccc(Cl)c3)c2c1
RESULT: 5.53
